The origin of these recorded values is patent US9249128B2.

# Target: KIAA1363 (Homo sapiens, UniProt Q6PIU2)
# Sequence (Q6PIU2 1-408): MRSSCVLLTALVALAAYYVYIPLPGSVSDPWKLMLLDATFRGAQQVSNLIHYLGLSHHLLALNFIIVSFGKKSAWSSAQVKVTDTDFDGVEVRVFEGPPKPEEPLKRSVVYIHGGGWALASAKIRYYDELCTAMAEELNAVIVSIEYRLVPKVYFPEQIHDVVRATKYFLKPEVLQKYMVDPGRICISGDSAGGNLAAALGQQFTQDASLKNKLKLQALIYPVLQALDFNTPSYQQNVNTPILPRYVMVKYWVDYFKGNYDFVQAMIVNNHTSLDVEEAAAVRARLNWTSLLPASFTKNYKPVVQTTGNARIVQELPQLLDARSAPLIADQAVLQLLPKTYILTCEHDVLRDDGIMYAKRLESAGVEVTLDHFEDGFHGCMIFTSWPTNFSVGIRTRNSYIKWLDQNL
# Test details: 2-acetyl MAGE hydrolytic activity assay in cancer cells treated in situ
# Assay type: cell-based
# Design: PC3 cancer cells, which have high endogenous KIAA1363 levels; endogenous in cells; host or cells: PC3 (2-acetyl MAGE assay also DU145 and SKOV3)
pIC50: −log10 of the molar value.
Endpoint: pIC50

### Prompt Which pIC50 value belongs to CC1=CC(C)=[N+]2C1=Cc1ccc(CCC(=O)NCCNC(=O)Oc3ccccc3C(C)C)n1[B-]2(F)F [JW576] ?
### Response 6.77 to 6.82

* * *

# Target: KIAA1363 (Mus musculus, UniProt Q8BLF1)
# Construct: ABPP analysis of KIAA1363 activity in mouse brain membrane proteome; from tissue; host or cells: mouse brain (membrane fraction)
# Sequence (Q8BLF1 1-408): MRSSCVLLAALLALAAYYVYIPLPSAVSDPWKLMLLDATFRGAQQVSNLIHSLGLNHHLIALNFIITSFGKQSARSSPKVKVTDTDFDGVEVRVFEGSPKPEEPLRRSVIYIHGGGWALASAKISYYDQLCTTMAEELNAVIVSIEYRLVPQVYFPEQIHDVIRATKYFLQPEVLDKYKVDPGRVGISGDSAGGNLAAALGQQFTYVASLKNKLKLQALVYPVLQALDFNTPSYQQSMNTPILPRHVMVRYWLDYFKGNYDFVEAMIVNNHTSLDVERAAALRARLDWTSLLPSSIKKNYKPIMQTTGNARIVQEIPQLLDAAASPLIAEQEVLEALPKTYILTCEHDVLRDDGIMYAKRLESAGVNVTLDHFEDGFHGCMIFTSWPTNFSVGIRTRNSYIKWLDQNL
# Test details: Gel-based competitive ABPP of KIAA1363 in mouse brain membrane proteome (FP-rhodamine)
# Assay type: biochemical
# Particulars: mouse brain membrane proteome; inhibitor 30 min before FP-rhodamine (1 μM, 30 min); averages of three replicates; read-out: IC50 (KIAA1363)
Endpoint: pIC50
Would you please state pIC50, meaning minus log10 of the concentration in mol/L, as a bare number?

Example compounds with recorded pIC50:
# Chemical structure, Target, pIC50
records = [
    ("O=C(NCc1ccc(Cl)cc1)Oc1ccc(-n2cccc2)cc1", "KIAA1363 (Mus musculus, UniProt Q8BLF1)", 6.41),
    ("O=C(NCCc1ccc(F)cc1)Oc1ccc(-c2ccccc2)cc1", "KIAA1363 (Mus musculus, UniProt Q8BLF1)", 6.02),
    ("CN(C)c1cccc(OC(=O)NCCc2ccc(F)cc2)c1", "KIAA1363 (Mus musculus, UniProt Q8BLF1)", 5.29),
]

Then there is this compound:
### Prompt Give its pIC50 value. Item: `Cc1ccc2ccccc2c1OC(=O)NCCc1ccc(C(F)(F)F)cc1`
### Response 6.07

* * *

# Target: AChE (Mus musculus, UniProt P21836)
# Construct: 20 μg of cell lysate or mouse brain membrane proteome
# Sequence (P21836 32-614): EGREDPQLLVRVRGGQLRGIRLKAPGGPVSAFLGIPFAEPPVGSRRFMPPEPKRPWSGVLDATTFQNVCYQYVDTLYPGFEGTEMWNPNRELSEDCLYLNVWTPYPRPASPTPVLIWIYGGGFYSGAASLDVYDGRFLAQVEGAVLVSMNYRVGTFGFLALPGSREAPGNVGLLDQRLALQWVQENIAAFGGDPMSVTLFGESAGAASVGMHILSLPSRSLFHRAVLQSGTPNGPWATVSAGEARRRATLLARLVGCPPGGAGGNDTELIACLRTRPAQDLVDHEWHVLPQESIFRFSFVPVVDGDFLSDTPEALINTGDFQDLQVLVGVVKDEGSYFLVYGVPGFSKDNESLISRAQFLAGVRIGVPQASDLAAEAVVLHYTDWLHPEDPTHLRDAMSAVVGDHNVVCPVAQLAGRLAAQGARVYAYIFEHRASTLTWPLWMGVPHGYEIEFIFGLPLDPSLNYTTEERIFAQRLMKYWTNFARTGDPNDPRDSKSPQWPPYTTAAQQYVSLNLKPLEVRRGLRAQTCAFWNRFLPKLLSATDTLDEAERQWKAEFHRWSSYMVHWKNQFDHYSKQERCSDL
# Test details: AChE activity assay with acetylthiocholine in mouse brain proteome
# Particulars: mouse brain proteome, substrate acetylthiocholine; n=3; read-out: IC50 for AChE (FIG. 2D)
Endpoint: pIC50
The quantity pIC50 is defined as the negative base-10 logarithm of the molar concentration.

### Prompt Please state recorded pIC50 (tested on AChE (Mus musculus, UniProt P21836)) of `COc1ccc(CNC(=O)Oc2cccc3c2OC(C)(C)C3)cc1`
### Response 6.00

* * *

# Target: KIAA1363 (Homo sapiens, UniProt Q6PIU2)
# Sequence (Q6PIU2 1-408): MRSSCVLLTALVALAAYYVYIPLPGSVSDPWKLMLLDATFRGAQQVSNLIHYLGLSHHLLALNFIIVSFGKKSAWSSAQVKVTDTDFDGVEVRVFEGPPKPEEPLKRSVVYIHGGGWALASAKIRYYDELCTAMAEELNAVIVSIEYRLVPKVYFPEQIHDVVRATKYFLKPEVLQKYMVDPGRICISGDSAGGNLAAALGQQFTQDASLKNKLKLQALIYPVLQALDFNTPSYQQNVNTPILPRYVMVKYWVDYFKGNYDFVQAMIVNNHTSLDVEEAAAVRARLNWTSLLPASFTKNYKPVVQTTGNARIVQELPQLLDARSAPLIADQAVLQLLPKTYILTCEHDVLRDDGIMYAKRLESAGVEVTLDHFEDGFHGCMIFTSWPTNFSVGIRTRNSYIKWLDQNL
# Test details: Gel-based competitive ABPP of living PC3 cells, in situ treatment
# Assay type: cell-based
# Parameters: PC3 cancer cells, which have high endogenous KIAA1363 levels; endogenous in cells; host or cells: PC3
# Particulars: in situ treatment, presence or absence of 10% fetal calf serum; read-out: IC50 for KIAA1363 in living PC3 cells
Endpoint: IC50

### Prompt Need IC50, item `CC(C)c1ccccc1OC(=O)NCCc1ccc2ccccc2c1`
### Response 6 to 12 nM

* * *

Quick list: IC50 per entry.
# Target: KIAA1363 (Mus musculus)
# Construct: ABPP analysis of KIAA1363 activity in mouse brain membrane proteome; from tissue; host or cells: mouse brain (membrane fraction)
# Test details: Gel-based competitive ABPP of KIAA1363 in mouse brain membrane proteome (FP-rhodamine)
# Type: biochemical

# Molecule, IC50
data = [
    ("O=C(NCCN1CCOCC1)Oc1ccc(-n2cccc2)cc1 [JW425]", "> 50 µM"),
    ("Cc1ccc2ccccc2c1OC(=O)NCCN1CCOCC1 [JW427]", "> 50 µM"),
]

### Prompt Given the molecule CCOc1ccccc1OC(=O)NCCN1CCOCC1 [JW429] , what is its reported IC50?
### Response > 50 µM

* * *

# Target: KIAA1363 (Mus musculus)
# Construct: ABPP analysis of KIAA1363 activity in mouse brain membrane proteome; from tissue; host or cells: mouse brain (membrane fraction)
# Test details: Gel-based competitive ABPP of KIAA1363 in mouse brain membrane proteome (FP-rhodamine)
# Assay type: biochemical
# Particulars: mouse brain membrane proteome; inhibitor 30 min before FP-rhodamine (1 μM, 30 min); averages of three replicates; read-out: IC50 (KIAA1363)
pIC50: −log10 of the molar value.
Endpoint: pIC50

# Chemical structure, pIC50
data = [
    ("Cc1ccc2ccccc2c1OC(=O)NCCCc1ccccc1", "< 5.00"),
    ("O=C(NCCc1ccc2c(c1)OCO2)Oc1ccc(-n2cccc2)cc1", "< 5.00"),
    ("CCCCc1ccc(CNC(=O)Oc2c(C)ccc3ccccc23)cc1", "< 4.30"),
    ("COc1ccc(OC(=O)NCCc2ccc(F)cc2)c2ccccc12", "< 4.30"),
    ("COc1cccc(OC(=O)NCCc2ccc(F)cc2)c1OC", "< 5.00"),
    ("O=C(NCC(c1ccccc1)c1ccccc1)Oc1ccc(-n2cccc2)cc1", "< 4.30"),
]

### Prompt Tell me the measured pIC50 of `Cc1ccc2ccccc2c1OC(=O)NCCC(c1ccccc1)c1ccccc1` , please.
### Response < 4.30

### Prompt Find the recorded pIC50 belonging to `Cc1ccc2ccccc2c1OC(=O)NCc1ccc(Cl)cc1` and report it.
### Response < 4.30

### Prompt So what does the record say about pIC50 for `O=C(NCCc1ccc2ccccc2c1)Oc1ccc(-n2cccc2)cc1` ?
### Response < 4.30

### Prompt pIC50 lookup needed for `CCOc1ccccc1OC(=O)NCCc1ccc(OC)cc1` , thanks.
### Response < 5.00

* * *

# Target: KIAA1363 (Mus musculus)
# Construct: ABPP analysis of KIAA1363 activity in mouse brain membrane proteome; from tissue; host or cells: mouse brain (membrane fraction)
# Sequence (Q8BLF1 1-408): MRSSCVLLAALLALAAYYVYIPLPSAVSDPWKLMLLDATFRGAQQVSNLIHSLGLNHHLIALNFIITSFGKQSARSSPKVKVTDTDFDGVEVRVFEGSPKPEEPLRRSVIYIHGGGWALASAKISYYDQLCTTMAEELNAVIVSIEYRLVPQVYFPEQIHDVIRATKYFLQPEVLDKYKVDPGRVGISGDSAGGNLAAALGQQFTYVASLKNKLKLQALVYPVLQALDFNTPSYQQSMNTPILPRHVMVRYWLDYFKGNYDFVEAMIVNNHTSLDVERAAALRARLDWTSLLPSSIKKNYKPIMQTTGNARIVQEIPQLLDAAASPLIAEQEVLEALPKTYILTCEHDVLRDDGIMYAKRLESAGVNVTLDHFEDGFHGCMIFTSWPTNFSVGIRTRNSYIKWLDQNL
# Test details: Gel-based competitive ABPP of KIAA1363 in mouse brain membrane proteome (FP-rhodamine)
# Format: biochemical
# Particulars: mouse brain membrane proteome; inhibitor 30 min before FP-rhodamine (1 μM, 30 min); averages of three replicates; read-out: IC50 (KIAA1363)
Endpoint: IC50

# Chemical structure, Test result
data = [
    ("O=C(NCCCc1ccccc1)Oc1ccc(-n2cccc2)cc1", "> 50 µM"),
]

### Prompt Param item = `CCOc1ccccc1OC(=O)NCCc1cc2ccccc2[nH]1` ; retrieve measured IC50.
### Response > 50 µM

### Prompt Which IC50 value is on record for `O=C(NCCc1ccc(Cl)c(Cl)c1)Oc1ccc(-n2cccc2)cc1` ?
### Response > 10 µM
